ED50 values for the molecules below.
# measurement.target: Human immunodeficiency virus type 1 protease (Human immunodeficiency virus 1) (UniProt Q72874)
# experiment.summary: Anti-HIV-1 activity against mutant HIV-1 in MT-4 cells (mutation selected with nelfinavir)
# Format: functional, cell-based
# run.conditions: MT4
result.type: ED50 (nM)

molecule	result.units	reading
CNC(=O)[C@@H](NC(=O)[C@H](OCc1cc(F)ccc1F)[C@H](O)[C@@H](O)[C@@H](OCc1cc(F)ccc1F)C(=O)N[C@H](C(=O)NC)C(C)C)C(C)C	nM	1380
O=C(NC1c2ccccc2C[C@H]1O)[C@H](OCc1c(F)cccc1F)[C@H](O)[C@@H](O)[C@@H](OCc1c(F)cccc1F)C(=O)N[C@H]1c2ccccc2C[C@H]1O (stereo partly specified)	nM	250
O=C(NC1c2ccccc2C[C@H]1O)[C@H](OCc1cccc(F)c1F)[C@H](O)[C@@H](O)[C@@H](OCc1cccc(F)c1F)C(=O)N[C@H]1c2ccccc2C[C@H]1O (stereo partly specified)	nM	60
O=C(NC1c2ccccc2C[C@H]1O)[C@H](OCc1cc(F)cc(F)c1)[C@H](O)[C@@H](O)[C@@H](OCc1cc(F)cc(F)c1)C(=O)N[C@H]1c2ccccc2C[C@H]1O (stereo partly specified)	nM	240
CNC(=O)[C@@H](NC(=O)[C@H](OCc1ccc(F)cc1)[C@H](O)[C@@H](O)[C@@H](OCc1ccc(F)cc1)C(=O)N[C@H](C(=O)NC)C(C)C)C(C)C	nM	1320
CNC(=O)[C@@H](NC(=O)[C@H](OCc1ccc(F)cc1F)[C@H](O)[C@@H](O)[C@@H](OCc1ccc(F)cc1F)C(=O)N[C@H](C(=O)NC)C(C)C)C(C)C	nM	480

Cited source: ChEMBL document CHEMBL1134445
